Listing of recorded IC50 by entry.
target: UniProt:Q7ZJM1; assay: Inhibition of strand transfer catalytic activity HIV1 integrase
READOUT_LABEL: IC50 (µM)

COMPOUND	READOUT_LABEL	COMPARISON_SIGN	NUMERIC_VALUE
O=C(/C=C/c1ccc(-c2ccccc2[N+](=O)[O-])o1)Nc1ccc(O)c(-c2nc3ccccc3o2)c1	IC50	=	63
CCSc1nnc(N2C(=O)c3ccc(C(=O)c4ccc(C(=O)O)cc4)cc3C2=O)s1	IC50	=	65
CC(=O)c1cc(C(=O)CC(=O)Nc2ccccc2)sc1Nc1ccccc1	IC50	>	100
O=C(/C=C/c1ccc(Cl)cc1)Nc1ccc(NC(=O)c2ccco2)cc1	IC50	=	91
Cc1ccc(C(=O)N/C(=C/c2ccc(-c3ccc(Cl)cc3Cl)o2)C(=O)NCCCO)cc1	IC50	=	85
O=C(/C=C/c1ccco1)NC(=S)Nc1ccccc1O	IC50	=	28
Cc1[nH]n(-c2ccccc2)c(=O)c1C(c1ccc(O)c(O)c1)c1c(C)n(C)n(-c2ccccc2)c1=O (centres undefined)	IC50	=	31
O=C(O)c1cc(NC(=O)c2cccc3ccccc23)c(C(=O)O)cc1NC(=O)c1cccc2ccccc12	IC50	=	21
CC(C)Cn1c(=O)c(C(=O)Nc2ccccc2S(N)(=O)=O)c(O)c2ccccc21	IC50	=	16

---

Listing of recorded pIC50 by entry.
target: Human immunodeficiency virus type 1 integrase (Human immunodeficiency virus 1); experiment: Inhibition of strand transfer catalytic activity HIV1 integrase
pIC50: −log10 of the molar value.

COMPOUND	pIC50
COc1ccc2oc(=O)c(-c3csc(N/N=C/c4ccccc4O)n3)cc2c1	5.00
COc1cc(/C=N/NC2=NC(=O)C(CC(=O)Nc3ccc(Cl)c(Cl)c3)S2)ccc1O (stereo unspecified)	4.42
O=C(N/N=C/c1ccc(/C=N/NC(=O)c2cc(O)cc(O)c2)cc1)c1cc(O)cc(O)c1	4.25
CCOC(=O)CCc1cc(C(=O)OCC)c(CCC(=O)OCC)cc1C(=O)OCC	4.03
O=C(CC1Sc2ccccc2NC1=O)Nc1cccc(C(=O)O)c1 (stereo unspecified)	4.15
O=C(Cc1ccccc1)Nc1cc(C(=O)O)c(NC(=O)Cc2ccccc2)cc1C(=O)O	5.15

---

target: UniProtKB Q7ZJM1; assay: Inhibition of strand transfer catalytic activity HIV1 integrase
pIC50: −log10 of the molar value.
Decision: pIC50 compared against 5; not below it gives Met, below it gives Not met.

COMPOUND	SYSTEM	CATEGORY_LABEL
COC(=O)c1ccc(C(=O)OC)c(NC(=O)c2ccc(C)c([N+](=O)[O-])c2)c1	UniProtKB Q7ZJM1	Not met
O=C(Nc1ccc(O)c(-c2nc3ccccc3o2)c1)c1cccc2ccccc12	UniProtKB Q7ZJM1	Met
CCOC(=O)c1c(-c2ccccc2)csc1NC(NC(=O)c1ccco1)C(=O)c1ccc(C)cc1 (centres undefined)	UniProtKB Q7ZJM1	Not met
O=C(O)C(Cc1c[nH]c2ccccc12)NS(=O)(=O)c1ccccc1[N+](=O)[O-] (centres undefined)	UniProtKB Q7ZJM1	Not met
Cc1ccc(S(=O)(=O)Nc2ccccc2/N=C/c2sc3ccccc3c2O)cc1	UniProtKB Q7ZJM1	Not met
CC(=O)c1cc(C(=O)CC(=O)Nc2ccc([N+](=O)[O-])cc2)sc1Nc1ccccc1	UniProtKB Q7ZJM1	Not met
COc1ccc(C(=O)Nc2ccc(O)c(-c3nc4ccccc4o3)c2)cc1[N+](=O)[O-]	UniProtKB Q7ZJM1	Met
O=C(/N=N/c1c(O)[nH]c2ccc(F)cc12)/C(=C/C=C/c1ccccc1)NC(=O)c1ccccc1	UniProtKB Q7ZJM1	Not met

---

test system: Human immunodeficiency virus 1; experiment: Antiviral activity in human T cell line CEM-SS infected with HIV1; type: functional, organism-based; conditions: Human immunodeficiency virus 1, T-cell; read-out: EC50

SMILES	EC50, µM
O=C(Cc1ccccc1)Nc1cc(C(=O)O)c(NC(=O)Cc2ccccc2)cc1C(=O)O	104

---

target: UniProt:Q7ZJM1; assay: Inhibition of 3'-processing catalytic activity HIV1 integrase
pIC50: −log10 of the molar value.
Listing of recorded pIC50 by entry.
READOUT_LABEL: pIC50

MOLECULE	SYSTEM	NUMERIC_VALUE
O=C(CC1Sc2ccccc2NC1=O)Nc1cccc(C(=O)O)c1 (centres undefined)	UniProt:Q7ZJM1	4.10
O=C(O)c1cc(NC(=O)c2cccc3ccccc23)c(C(=O)O)cc1NC(=O)c1cccc2ccccc12	UniProt:Q7ZJM1	4.55
O=C(/C=C/c1ccco1)NC(=S)Nc1ccccc1O	UniProt:Q7ZJM1	4.24
O=C(CSc1nc2ccccc2n1Cc1ccccc1)N/N=C/c1cc(Br)ccc1O	UniProt:Q7ZJM1	4.22
CC(=O)c1cc(C(=O)CC(=O)Nc2ccc([N+](=O)[O-])cc2)sc1Nc1ccccc1	UniProt:Q7ZJM1	4.10
Cc1ccc(S(=O)(=O)Nc2ccccc2/N=C/c2sc3ccccc3c2O)cc1	UniProt:Q7ZJM1	4.06
O=C(/N=N/c1c(O)[nH]c2ccc(F)cc12)/C(=C/C=C/c1ccccc1)NC(=O)c1ccccc1	UniProt:Q7ZJM1	4.22
Cc1[nH]n(-c2ccccc2)c(=O)c1C(c1ccc(O)c(O)c1)c1c(C)n(C)n(-c2ccccc2)c1=O (centres undefined)	UniProt:Q7ZJM1	4.05
COc1ccc(N(CC(=O)N/N=C/c2c(O)ccc3ccccc23)S(C)(=O)=O)cc1Cl	UniProt:Q7ZJM1	4.02

---

target: Human immunodeficiency virus type 1 integrase (Human immunodeficiency virus 1, UniProt Q7ZJM1); assay: Inhibition of 3'-processing catalytic activity HIV1 integrase
Sequence (Q7ZJM1 whole entry): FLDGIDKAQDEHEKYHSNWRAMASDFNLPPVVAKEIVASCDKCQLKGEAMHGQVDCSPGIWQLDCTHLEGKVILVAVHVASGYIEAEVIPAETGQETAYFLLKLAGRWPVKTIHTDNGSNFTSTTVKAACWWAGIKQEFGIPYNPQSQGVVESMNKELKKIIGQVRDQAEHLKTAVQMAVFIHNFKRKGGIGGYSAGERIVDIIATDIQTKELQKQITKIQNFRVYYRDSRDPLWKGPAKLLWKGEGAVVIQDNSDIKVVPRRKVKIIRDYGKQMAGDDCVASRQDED

SMILES	COMPARISON_SIGN	IC50, µM
Cc1ccc(C(=O)N/C(=C/c2ccc(-c3ccc(Cl)cc3Cl)o2)C(=O)NCCCO)cc1	>	1000
O=C(Nc1ccc(O)c(-c2nc3ccccc3o2)c1)c1cccc2ccccc12	=	14
CC(=O)c1cc(C(=O)CC(=O)Nc2cccc([N+](=O)[O-])c2)sc1Nc1ccccc1	=	97
O=C(c1ccccc1)c1cc(Br)ccc1NC(=O)c1nc[nH]c1C(=O)O	=	16
O=C(/C=C(\O)c1ccc(Cl)cc1)C(=O)/N=N/c1c(O)[nH]c2ccc(Br)cc12	=	42
O=C(N/N=C/c1ccc(/C=N/NC(=O)c2cc(O)cc(O)c2)cc1)c1cc(O)cc(O)c1	=	76
CCOC(=O)CCc1cc(C(=O)OCC)c(CCC(=O)OCC)cc1C(=O)OCC	>	100
O=C(N/N=C/c1cc(Br)ccc1O)/C(=C/C=C/c1ccccc1)NC(=O)c1ccccc1	=	90
COc1ccc(CCNC(=O)CC(=O)N/N=C/c2ccco2)cc1OC	>	100
O=C(Cc1ccccc1)Nc1cc(C(=O)O)c(NC(=O)Cc2ccccc2)cc1C(=O)O	=	9

---

target: UniProt Q7ZJM1; assay: Inhibition of 3'-processing catalytic activity HIV1 integrase

COMPOUND	SYSTEM	UNIT_TEXT	IC50
O=C(Nc1ccc(O)c(-c2nc3cc(Cl)ccc3o2)c1)c1cccnc1	UniProt Q7ZJM1	µM	61
O=C(O)C(Cc1c[nH]c2ccccc12)NS(=O)(=O)c1ccccc1[N+](=O)[O-] (stereo not given)	UniProt Q7ZJM1	µM	88
CCSc1nnc(N2C(=O)c3ccc(C(=O)c4ccc(C(=O)O)cc4)cc3C2=O)s1	UniProt Q7ZJM1	µM	98
COc1ccc(C(=O)Nc2ccc(O)c(-c3nc4ccccc4o3)c2)cc1[N+](=O)[O-]	UniProt Q7ZJM1	µM	6
O=C(/C=C/c1ccc(Cl)cc1)Nc1ccc(NC(=O)c2ccco2)cc1	UniProt Q7ZJM1	µM	90

---

biological target: Human immunodeficiency virus type 1 integrase (Human immunodeficiency virus 1); experiment: Inhibition of 3'-processing catalytic activity HIV1 integrase
pIC50: −log10 of the molar value.

MOLECULE	SYSTEM	COMPARISON_SIGN	pIC50
COC(=O)c1ccc(C(=O)OC)c(NC(=O)c2ccc(C)c([N+](=O)[O-])c2)c1	Human immunodeficiency virus type 1 integrase (Human immunodeficiency virus 1)	=	4.04
Oc1ccccc1/C=N/CC(O)C/N=C/c1ccccc1O	Human immunodeficiency virus type 1 integrase (Human immunodeficiency virus 1)	=	4.01
CC(C)Cn1c(=O)c(C(=O)Nc2ccccc2S(N)(=O)=O)c(O)c2ccccc21	Human immunodeficiency virus type 1 integrase (Human immunodeficiency virus 1)	=	4.40
CC(=O)c1cc(C(=O)CC(=O)Nc2ccccc2)sc1Nc1ccccc1	Human immunodeficiency virus type 1 integrase (Human immunodeficiency virus 1)	<	4.00
Cc1ccc(C(=O)C2=C(O)C(=O)N(CCCc3c[nH]cn3)C2c2ccc(Cl)cc2)cc1 (stereo not given)	Human immunodeficiency virus type 1 integrase (Human immunodeficiency virus 1)	=	4.03
O=C(/C=C/c1ccc(-c2ccccc2[N+](=O)[O-])o1)Nc1ccc(O)c(-c2nc3ccccc3o2)c1	Human immunodeficiency virus type 1 integrase (Human immunodeficiency virus 1)	=	4.64
COc1cc(/C=N/NC2=NC(=O)C(CC(=O)Nc3ccc(Cl)c(Cl)c3)S2)ccc1O (stereo not given)	Human immunodeficiency virus type 1 integrase (Human immunodeficiency virus 1)	=	4.05
CCOC(=O)c1c(-c2ccccc2)csc1NC(NC(=O)c1ccco1)C(=O)c1ccc(C)cc1 (stereo not given)	Human immunodeficiency virus type 1 integrase (Human immunodeficiency virus 1)	<	4.00
COc1ccc2oc(=O)c(-c3csc(N/N=C/c4ccccc4O)n3)cc2c1	Human immunodeficiency virus type 1 integrase (Human immunodeficiency virus 1)	=	4.52
O=C(CSc1nc(CSc2ccc(Cl)cc2)cc(=O)[nH]1)Nc1ccc(Cl)cc1Cl	Human immunodeficiency virus type 1 integrase (Human immunodeficiency virus 1)	=	4.47

Entry source: ChEMBL document CHEMBL1141221
